Where these numbers come from: patent US20100130424A1

Target: T1, human CRH receptor type 2 (human, UniProt Q13324 1-411)
T1 sequence (looked up): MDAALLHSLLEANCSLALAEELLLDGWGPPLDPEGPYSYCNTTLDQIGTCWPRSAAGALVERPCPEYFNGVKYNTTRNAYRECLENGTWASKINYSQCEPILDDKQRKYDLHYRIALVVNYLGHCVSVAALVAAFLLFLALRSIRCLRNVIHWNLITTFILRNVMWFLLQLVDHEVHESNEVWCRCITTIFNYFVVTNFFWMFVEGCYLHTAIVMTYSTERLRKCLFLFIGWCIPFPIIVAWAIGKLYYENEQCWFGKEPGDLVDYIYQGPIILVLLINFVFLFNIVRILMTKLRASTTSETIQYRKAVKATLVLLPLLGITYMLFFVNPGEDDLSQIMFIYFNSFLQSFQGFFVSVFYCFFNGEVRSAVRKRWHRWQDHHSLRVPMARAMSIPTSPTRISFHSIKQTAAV
Assay: cell-based or functional assay
No end group written: not given here.
MEASURED_ENDPOINT: Log DR against h-SCP, cAMP (log10 ratio)

Example cases with answers are listed next.
BINDER	MEASURED_ENDPOINT	EXPERIMENTAL_VALUE
TKFTLSLDVPTNIMNLLFNIACAKNLRAQAAANAHLMAQI (NES-PEG (about 20 kDa) on Cys 22; C-terminal amide) [Pegylated Cys-variant CRHR2 peptide agonist (NES linker, PEG about 20 kDa), SEQ ID NO: 76]	Log DR against h-SCP, cAMP	2.7
TKFTLSLDVPTNIMNLLFNIAKAKNLRAQAAANAHLMCQI (NES-PEG (about 20 kDa) on Cys 38; C-terminal amide) [Pegylated Cys-variant CRHR2 peptide agonist (NES linker, PEG about 20 kDa), SEQ ID NO: 92]	Log DR against h-SCP, cAMP	1.55

(1) TKFTLSLDVPTNIMNLLFNIAKAKNLRAQAAANCHLMAQI (NES-PEG (about 20 kDa) on Cys 34; C-terminal amide) [Pegylated Cys-variant CRHR2 peptide agonist (NES linker, PEG about 20 kDa), SEQ ID NO: 88]
(2) TCFTLSLDVPTNIMNLLFNIAKAKNLRAQAAANAHLMAQI-NH2 [Cys-variant CRHR2 peptide agonist, SEQ ID NO: 3]
Lookup: Hey, which is lower on measured Log DR against h-SCP, cAMP, 1 or 2 ? Give the label under which the chosen entry appears.
Found: 2
(2: 0.72 log10 ratio, 1: 1.55 log10 ratio)
